Listing of recorded pIC50 by entry.
system: progesterone receptor ligand binding domain (GST-tagged PR LBD) (Homo sapiens)
Sequence (P06401 679-913 limits assumed): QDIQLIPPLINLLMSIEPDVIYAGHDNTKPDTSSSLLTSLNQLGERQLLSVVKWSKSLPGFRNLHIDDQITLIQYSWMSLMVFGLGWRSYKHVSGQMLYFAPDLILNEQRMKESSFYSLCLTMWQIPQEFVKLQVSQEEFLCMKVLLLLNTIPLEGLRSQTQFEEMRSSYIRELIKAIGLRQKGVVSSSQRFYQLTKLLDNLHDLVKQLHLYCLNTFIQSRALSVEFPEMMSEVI
pIC50: −log10 of the molar value.

# cpd.smiles, system, pIC50
rows = [
    ("Cn1cc(-c2cc(C(C)(C)O)ccc2Oc2ccc(CCC3CCN(c4ncc(C(=O)N[C@H]5C(C)(C)[C@H](Oc6ccc(C#N)c(Cl)c6)C5(C)C)cn4)CC3)cc2)c2cc[nH]c2c1=O", "progesterone receptor ligand binding domain (GST-tagged PR LBD) (Homo sapiens)", "< 5.60"),
    ("Cn1cc(-c2cc(C(C)(C)O)ccc2Oc2ccc(OCC3CCN(c4ncc5c(n4)CN([C@H]4C(C)(C)[C@H](Oc6ccc(C#N)c(Cl)c6)C4(C)C)C5=O)CC3)cc2)c2cc[nH]c2c1=O", "progesterone receptor ligand binding domain (GST-tagged PR LBD) (Homo sapiens)", "< 5.60"),
    ("CCS(=O)(=O)Nc1ccc(Oc2ccc(OCC3CCN(c4ncc(C(=O)N[C@H]5C(C)(C)[C@H](Oc6ccc(C#N)c(Cl)c6)C5(C)C)cn4)CC3)cc2)c(-c2cn(C)c(=O)c3[nH]ccc23)c1", "progesterone receptor ligand binding domain (GST-tagged PR LBD) (Homo sapiens)", "< 5.60"),
]
